# Assayed System: OsWOX13 (Oryza sativa, UniProt Q5QMM3 1-267)
# Sequence: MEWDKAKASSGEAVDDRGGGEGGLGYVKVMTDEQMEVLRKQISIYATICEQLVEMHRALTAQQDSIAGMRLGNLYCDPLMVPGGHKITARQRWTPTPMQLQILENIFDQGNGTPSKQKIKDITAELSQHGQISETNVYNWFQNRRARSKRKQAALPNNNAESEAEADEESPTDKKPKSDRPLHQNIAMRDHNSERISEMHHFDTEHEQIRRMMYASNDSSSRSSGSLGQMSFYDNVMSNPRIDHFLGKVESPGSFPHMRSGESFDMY
# Procedure Text: protein-binding microarray (RPBM); PBS, 2% BSA, 51.3 ng/ul salmon testes DNA, 50 uM zinc acetate, 200 nM TF, 25 C, 1 h; high values mean tight binding
# Particulars: protein: recombinant; tags: N-terminal polyhistidine and DsRed monomer fusion (pET32a); label: CyDye5-dUTP incorporated in the synthesized complementary strand; 3' TTTTT single-stranded linker to array surface; dsDNA, one strand shown
Over roughly 35,000 sequences, “fluorescence intensity (a.u.)” has its median near 10,000; the highest 2% begin near 52,000. The sample as a whole holds a higher share of the highest values than the screen did.
Observable: binding signal

Sequence Record	binding signal
GCTAATTGCAATTTTGGCCGTCCATAAAGAGCTTGCGGCCCGGAGTCACCTAGTGCAG	52900 fluorescence intensity (a.u.)
CCGGTCTCCAAATCTTTATTAATTGCTTCCTCAAAACCCCCGGAGTCACCTAGTGCAG	3980 fluorescence intensity (a.u.)
AGATGGGAATCATTATCAATCTATCATCCTAAATATAAACCGGAGTCACCTAGTGCAG	4070 fluorescence intensity (a.u.)
GATAGATAGATAGATAGATAGATAGATAGATACTAGTACACGGAGTCACCTAGTGCAG	37000 fluorescence intensity (a.u.)
ATGTAATTTCACCATAACTATATATTATAATAAGATAAGTCGGAGTCACCTAGTGCAG	8720 fluorescence intensity (a.u.)

Task item: State, in one line, measured binding signal of `CACATCAACCTGCACCAATCATGCCATCGAGATCACAACACGGAGTCACCTAGTGCAG`
Reply: 3970 fluorescence intensity (a.u.)

Task item: Note binding signal for the sequence shown: `CCATAATTTTGCAAAGACATCAAACCAAATAAAACCAATGCGGAGTCACCTAGTGCAG`
Reply: 6680 fluorescence intensity (a.u.)

Task item: Recall and state the measured binding signal for `CATATGATTAATTAAAATTTTATCATTTAGAACTTGAAAACGGAGTCACCTAGTGCAG` .
Reply: 34800 fluorescence intensity (a.u.)

Task item: Report binding signal for `ACTAGCTAACTAAATTTGAAAGAGACTAGCTAGCTGCTTGCGGAGTCACCTAGTGCAG`
Reply: 6300 fluorescence intensity (a.u.)

----------
# Assayed System: OsWOX13 (Oryza sativa, UniProt Q5QMM3 1-267)
# Sequence: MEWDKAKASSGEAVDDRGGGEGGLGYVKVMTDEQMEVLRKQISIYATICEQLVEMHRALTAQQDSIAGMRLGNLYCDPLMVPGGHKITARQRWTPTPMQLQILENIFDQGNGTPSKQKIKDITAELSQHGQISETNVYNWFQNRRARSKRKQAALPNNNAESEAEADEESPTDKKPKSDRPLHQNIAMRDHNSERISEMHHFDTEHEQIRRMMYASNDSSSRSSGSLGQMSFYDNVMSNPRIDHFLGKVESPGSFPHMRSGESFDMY
# Procedure Text: protein-binding microarray (RPBM); PBS, 2% BSA, 51.3 ng/ul salmon testes DNA, 50 uM zinc acetate, 200 nM TF, 25 C, 1 h; high values mean tight binding
# Particulars: protein: recombinant; tags: N-terminal polyhistidine and DsRed monomer fusion (pET32a); label: CyDye5-dUTP incorporated in the synthesized complementary strand; 3' TTTTT single-stranded linker to array surface; dsDNA, one strand shown
In all, about 35,000 sequences were measured (“fluorescence intensity (a.u.)”: median about 10,000, highest 2% from about 52,000 on). The sample holds the highest values, similar sequences and a random draw of the others, so the mix is not that of the screen.
Observable: binding signal

Task item: Report binding signal under test system OsWOX13 (Oryza sativa, UniProt Q5QMM3 1-267) for `ACAGACATAAATACGATTGATTAAGTAGTAGCCTAGCTAACGGAGTCACCTAGTGCAG` .
Reply: 14600 fluorescence intensity (a.u.)

Task item: Give binding signal; test system OsWOX13 (Oryza sativa, UniProt Q5QMM3 1-267); sequence `ATCTCCAAAATTTTAAATTTTAATTAAAACCTAACTTACACGGAGTCACCTAGTGCAG`
Reply: 6930 fluorescence intensity (a.u.)

Task item: Provide measured binding signal on OsWOX13 (Oryza sativa, UniProt Q5QMM3 1-267) for `TGGACAACAATTCTTGATTGAATTTAATTAACGGATAACGCGGAGTCACCTAGTGCAG` please.
Reply: 28000 fluorescence intensity (a.u.)

Task item: Give reported binding signal for `TGATTAAATTGCTTTAACTTTTATTTAATTTGTAGAAAATCGGAGTCACCTAGTGCAG` (OsWOX13 (Oryza sativa, UniProt Q5QMM3 1-267))
Reply: 22500 fluorescence intensity (a.u.)

Task item: Specify the recorded binding signal for `TGTGACATTTCCAATCACTAATTGATCAATTGCACAACAACGGAGTCACCTAGTGCAG` , system: OsWOX13 (Oryza sativa, UniProt Q5QMM3 1-267).
Reply: 38100 fluorescence intensity (a.u.)

Task item: State measured binding signal of the sequence `ACATAATTAGTTTATCTCTCCTCAAGCTGGTGCATCTCTCCGGAGTCACCTAGTGCAG` with OsWOX13 (Oryza sativa, UniProt Q5QMM3 1-267).
Reply: 31200 fluorescence intensity (a.u.)

Task item: Would you please give the reported binding signal of `CATGATTGCTCATCTTTGTATTAAAAGAAATAATTTATGTCGGAGTCACCTAGTGCAG` with OsWOX13 (Oryza sativa, UniProt Q5QMM3 1-267)?
Reply: 53500 fluorescence intensity (a.u.)

Task item: Name the recorded binding signal of `TTGTTAATTACCTTGTTTAATTAATTTCGCTAGCTTAGATCGGAGTCACCTAGTGCAG` , assay system OsWOX13 (Oryza sativa, UniProt Q5QMM3 1-267).
Reply: 44700 fluorescence intensity (a.u.)

Task item: Enter measured binding signal, system OsWOX13 (Oryza sativa, UniProt Q5QMM3 1-267), for the sequence shown: `AAGCATCAATTCGTTGCCTGATTAGTACAACACTGTTGTGCGGAGTCACCTAGTGCAG`
Reply: 5420 fluorescence intensity (a.u.)

----------
# Assayed System: OsWOX13 (Oryza sativa, UniProt Q5QMM3 1-267)
# Sequence: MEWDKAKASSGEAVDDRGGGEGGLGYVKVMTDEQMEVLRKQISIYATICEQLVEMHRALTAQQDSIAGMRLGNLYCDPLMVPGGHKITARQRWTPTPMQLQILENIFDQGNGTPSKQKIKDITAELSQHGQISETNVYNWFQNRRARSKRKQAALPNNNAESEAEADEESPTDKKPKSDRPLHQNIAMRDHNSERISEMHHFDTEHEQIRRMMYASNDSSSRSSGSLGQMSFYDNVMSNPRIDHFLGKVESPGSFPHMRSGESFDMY
# Procedure Text: protein-binding microarray (RPBM); PBS, 2% BSA, 51.3 ng/ul salmon testes DNA, 50 uM zinc acetate, 200 nM TF, 25 C, 1 h; high values mean tight binding
# Particulars: protein: recombinant; tags: N-terminal polyhistidine and DsRed monomer fusion (pET32a); label: CyDye5-dUTP incorporated in the synthesized complementary strand; 3' TTTTT single-stranded linker to array surface; dsDNA, one strand shown
Whole data set: some 35,000 sequences, median “fluorescence intensity (a.u.)” near 10,000, cut for the highest 2% near 52,000. The full list was thinned out, with the highest values kept by preference.
Observable: binding signal

Task item: Output binding signal of `GTCATAATTTGAAATTCAAATTTAAACTATTCAAACAAAGCGGAGTCACCTAGTGCAG`
Reply: 23300 fluorescence intensity (a.u.)

Task item: Report binding signal for `AAAATTGATGTTCTCTTTGGTGCATTTCTTTCTTATTGTCCGGAGTCACCTAGTGCAG`
Reply: 26800 fluorescence intensity (a.u.)

Task item: For the sequence `ACTAATTTGGTATTATAACTGTTGCTAATTATTCTATAAACGGAGTCACCTAGTGCAG` , give its measured binding signal value.
Reply: 21700 fluorescence intensity (a.u.)

Task item: Supply measured binding signal of `GCAAATTGAATTAATTCGTGTGATATTTGTTCTGCACCGGCGGAGTCACCTAGTGCAG` in your reply.
Reply: 59500 fluorescence intensity (a.u.)

Task item: Tell me its binding signal given `AAAATTATATAATTATAATTTATTTTATTGCAACTTGATTCGGAGTCACCTAGTGCAG` as the entry.
Reply: 27000 fluorescence intensity (a.u.)

Task item: Answer with the recorded binding signal of `CCCAATTGGTGATTAGATAATCCTGTCACTTTCTTCAAGTCGGAGTCACCTAGTGCAG` only.
Reply: 54100 fluorescence intensity (a.u.)

Task item: Specify reported binding signal for the sequence shown: `CAAATTGGTGGGTGATTGCTAATTTATAACTGTTCGTATTCGGAGTCACCTAGTGCAG`
Reply: 64100 fluorescence intensity (a.u.)

Task item: For `TGTATTTGATTGAAACTGTTCATACTATAAACATGCTGGGCGGAGTCACCTAGTGCAG` , write its binding signal.
Reply: 57900 fluorescence intensity (a.u.)

Task item: Specify measured binding signal for `ATCATAATTTGAAATTCAAATTCATACTGTTCAAACAAAGCGGAGTCACCTAGTGCAG` .
Reply: 17600 fluorescence intensity (a.u.)
